system-under-test: T1, T. thermophilus RNase H I_(core) fragment (T. thermophilus)
T1 chain: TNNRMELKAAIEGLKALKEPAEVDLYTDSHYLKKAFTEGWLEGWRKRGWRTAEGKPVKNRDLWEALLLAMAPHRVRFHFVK
measurement-protocol: AUC; equilibrium analytical ultracentrifugation (Beckman XL-I); 25, 50 and 100 uM samples; 24,500, 30,000 and 37,000 rpm; absorbance at 250 nm; global fit to a monomer-dimer equilibrium (dimer to monomers); room temperature, 20 mM sodium acetate pH 5.5, 50 mM potassium chloride
experimental-parameters: both partners purified
reported-endpoint: Kd

1. T. thermophilus RNase H I_(core) fragment (domain or fragment, Printed limits 43-122 use E. coli alignment numbering. The offset is +4 at the N-terminal end (R4=R8, W22=W26, D66=D70) and +5 after the one-residue insertion near 80, so 122=K127. The paper says …) TNNRMELKAAIEGLKALKEPAEVDLYTDSHYLKKAFTEGWLEGWRKRGWRTAEGKPVKNRDLWEALLLAMAPHRVRFHFVK :: ~150 µM
